Listed here: items and their measured GI50.
System: TK-10 renal
method.notes: NCI tumour cell line growth inhibition, 48 h
quantity.kind: GI50

{"test.smiles": "Cc1nnc2ccnn2c1C", "study.target": "TK-10 renal", "result": "> 100000 nM"}
{"test.smiles": "CC1(C)[C@@H](NOCCCN)CC[C@]2(C)[C@H]3C(=O)C=C4[C@@H]5C[C@](C)(C(=O)O)CC[C@]5(C)CC[C@@]4(C)[C@]3(C)CC[C@@H]12", "study.target": "TK-10 renal", "result": "16700 nM"}
{"test.smiles": "COCCn1cc(-c2nc(-c3cc4cccnc4[nH]3)cs2)c2cc(OC)ccc21", "study.target": "TK-10 renal", "result": "1070 nM"}
{"test.smiles": "CCCCCCOc1ccc(/C=N/Nc2cc(C)nc3ccc(Cl)cc23)cc1", "study.target": "TK-10 renal", "result": "1890 nM"}
{"test.smiles": "C=C1C(=O)O[C@H]2[C@H]1CC/C(CNC(=O)c1cc3ccccc3[nH]1)=C\\CC[C@@]1(C)O[C@@H]21", "study.target": "TK-10 renal", "result": "1480 nM"}
